All values here come from ChEMBL document CHEMBL2401669.

Species: Homo sapiens
Test: selectivity ratio of IC50 for human 11beta-HSD2 to IC50 for human 11beta-HSD1
measure_name: Ratio IC50

C=C1C[C@@]23CC[C@@H]4[C@](C)(CO)CCC[C@@]4(C)[C@@H]2CC[C@H]1C3 :: 7

A: C=C1[C@H]2C[C@H](O)[C@H]3[C@]4(C)CCC[C@@](C)(NC(=O)Nc5cccc6ccccc56)[C@H]4CC[C@]3(C2)[C@@H]1O
B: C=C1[C@H]2C[C@H](O)[C@H]3[C@]4(C)CCC[C@@](C)(NC(=O)NC56CC7CC(CC(C7)C5)C6)[C@H]4CC[C@]3(C2)[C@@H]1O
[Q] Short answer wanted: higher Ratio IC50, A or B ? Identify your pick by its label.
[A] A
